Test system: MDA-MB-468 breast
assayExplanation: NCI tumour cell line growth inhibition, 48 h
attributeMeasured: TGI

| compound | attributeMeasured | result |
| --- | --- | --- |
| COC1=CC(c2ccc[nH]2)=N/C1=C\c1[nH]c(C)c(C(=O)CCCCC(=O)Oc2ccc3c(c2)CCC2C3CC[C@]3(C)[C@@H](O)CC[C@@H]23)c1C (stereo partly drawn) | TGI | > 100 µM |
| CCOc1cccc(-c2nc(N)nc(Nc3ccccc3SSc3ccccc3Nc3nc(N)nc(-c4cccc(OCC)c4)n3)n2)c1 | TGI | > 100 µM |
| Cn1c(=O)c(Oc2ccc(F)cc2F)cc2cnc(NC3CCS(=O)(=O)CC3)nc21 | TGI | > 25 µM |

Origin of measurements: PubChem BioAssay (NCI)
